Test system: CCRIS mutagenicity, Ames/micronucleus/aberration tests
protocol_description: CCRIS mutagenicity studies
run_parameters: Test System: AMES SALMONELLA TYPHIMURIUM; Strain/Indicator: TA97; Metabolic Activation: RAT, LIVER, S-9, AROCLOR 1254 (10%); Method: PREINCUBATION
Active and inactive are the calls of the source. How the calls were made is not given here.
Could you please pick one outcome from this set? TRUE = active, FALSE = inactive

// query In this assay, the call recorded for CC(O)CBr (configuration not stated) was what?
// result FALSE

// query Check the results log: what was the call for c1ccc2n[nH]nc2c1 ?
// result FALSE

// query # fetch the recorded call for CC=C(C)C#N here
// result FALSE

// query So what was the verdict on CC(=O)O in this test?
// result FALSE

// query Which outcome did this test record for the compound O=CC(Cl)(Cl)Cl ?
// result FALSE

// query # fetch the recorded call for Cc1ccc(S(=O)(=O)NC(=O)NN2CCCCCC2)cc1 here
// result FALSE

// query Can you look up the reported call for CC(C)(O)C#N for me?
// result FALSE

// query Given CCCCCCCCCCCC(=O)N(CCO)CCO , state the outcome it received in this test.
// result FALSE

// query # outcome recorded in this test, key = O=c1c2[nH]c3ccccc3c2nnn1/N=C/c1ccc([N+](=O)[O-])cc1
// result TRUE

// query Give the logged outcome of this assay for the following compound: CCCCC(CC)CN (configuration not stated)
// result FALSE

// query Call for entry CCSCCC(N)C(=O)O (configuration not stated) :
// result FALSE

// query // return assay outcome for Oc1ccc(Nc2ccc3ccccc3c2)cc1
// result FALSE

// query // return assay outcome for CC/C=C/C#N
// result FALSE

// query How did this test come out for O=C(O)c1ccccc1[N+](=O)[O-] ?
// result FALSE

// query Fill in: this test's call for CCC(C)(C)c1ccc(O)cc1 is ___
// result FALSE

// query Hi, sorry to bother you, what did the test record for Oc1c(Cl)ccc(Cl)c1Cl ?
// result FALSE

// query For this compound, state the assay outcome: c1ccsc1
// result FALSE

// query For O=C(O)CNCP(=O)(O)O , which call appears in the assay record?
// result FALSE

// query Hi team, can someone confirm the assay call for Cc1ccc(O)c(N)c1 ?
// result FALSE

// query Could you please tell me the result logged for COc1ccc(C(=O)c2ccccc2)c(O)c1 in this assay?
// result FALSE

// query What is the recorded call for this compound in the test? C=C(Cl)CCl
// result TRUE

// query Dear all, I need the recorded test outcome for CC(=O)Oc1ccccc1C(=O)O , thank you.
// result FALSE

// query Query: recorded result category for O=[N+]([O-])c1ccc(O)c([N+](=O)[O-])c1 in this test
// result FALSE

// query Which outcome did this test record for the compound O=[N+]([O-])c1ccc(Nc2ccccc2O)c([N+](=O)[O-])c1 ?
// result TRUE

// query Answer briefly: the call reported for CCCCC(CC)COCCC#N (configuration not stated) in this assay.
// result FALSE

// query Please let me know the test result on file for OCCBr .
// result FALSE

// query Field: outcome | Entry: Nc1ccc(Oc2ccc(N)cc2)cc1
// result TRUE

// query Give the logged outcome of this assay for the following compound: O=C1c2ccccc2C(=O)C1c1ccc2ccccc2n1
// result FALSE

// query Could you please tell me the result logged for Cc1ccc(CO)cc1 in this assay?
// result FALSE

// query Lab log entry: COc1ccc(N)cc1N — outcome as called in the assay?
// result TRUE

// query Field: outcome | Entry: CC(=O)Nc1cccc(N)c1
// result TRUE

// query Hello, I am checking results. What call was entered for C1N2CN3CN1CN(C2)C3 ?
// result FALSE

// query Recorded call for Nc1ccccc1-c1ccccc1 ?
// result FALSE

// query Please let me know the test result on file for CCCCCCCCOc1ccc(C(=O)O)cc1 .
// result FALSE

// query Check the results log: what was the call for Cc1ccc(C#N)cc1 ?
// result FALSE

// query // return assay outcome for CCN(CC)c1ccc(N)cc1
// result FALSE

// query Give the logged outcome of this assay for the following compound: CC(=O)Nc1ccc(/C=N/n2nnc3c([nH]c4ccccc43)c2=O)cc1
// result TRUE

====

Tested on: CCRIS mutagenicity, Ames/micronucleus/aberration tests
protocol_description: CCRIS mutagenicity studies
run_parameters: Test System: AMES SALMONELLA TYPHIMURIUM; Strain/Indicator: TA100; Metabolic Activation: RAT LIVER S-9, 3-METHYLCHOLANTHRENE, SODIUM PHENOBARBITAL; Method: STANDARD PLATE
Active and inactive are the calls of the source. No rule for the calls is given here.
Thanks in advance; please answer with one of these: active, inactive

// query GET /call?item= COc1ccc(-c2nc(-c3ccc(C)cc3)c(-c3ccc(C)cc3)[nH]2)cc1OC returns the recorded outcome of this test.
// result inactive

// query Identify the outcome logged in this assay for the molecule shown: Cc1ccc(-c2nc(-c3ccc(C)cc3C)[nH]c2-c2ccc(C)cc2)cc1
// result active

// query What call does the record list for c1ccc(-c2nc(-c3ccccc3)c(-c3ccccc3)[nH]2)cc1 ?
// result inactive

// query For COc1ccc(-c2nc(-c3ccccc3)c(-c3ccccc3)[nH]2)cc1 , what call appears in the results of this test?
// result inactive

====

Test system: CCRIS mutagenicity, Ames/micronucleus/aberration tests
protocol_description: CCRIS mutagenicity studies
run_parameters: Test System: AMES SALMONELLA TYPHIMURIUM; Strain/Indicator: TA1535; Metabolic Activation: NONE; Method: STANDARD PLATE
Calls of active or inactive are those of the source. The rule behind the calls is not given here.
recorded_endpoint: mutagenic call

In the examples that follow, each entry is paired with its recorded mutagenic call.
O=C1[C@H]2CC=CC[C@H]2C(=O)N1SC(Cl)(Cl)Cl	active; positive
c1ccc(-c2ccc(CCC3CO3)cc2)cc1 (configuration not stated)	inactive; negative
CCN(CC)C(=O)/C(Cl)=C(\C)OP(=O)(OC)OC	inactive; negative
Cc1ccccc1N	inactive; negative
Cc1ccc(C(=O)n2ncc(Cl)c(Cl)c2=O)cc1	inactive; negative

// query State recorded mutagenic call with CCRIS mutagenicity, Ames/micronucleus/aberration tests, entry O=C1Nc2ccc(Cl)cc2C(c2ccccc2)=NC1O (configuration not stated) , no comment.
// result inactive; negative

// query Provide mutagenic call, system CCRIS mutagenicity, Ames/micronucleus/aberration tests, entry [Cr]
// result active; positive

// query Look up and report mutagenic call, with CCRIS mutagenicity, Ames/micronucleus/aberration tests as system, for [N-]=[N+]=[N-]
// result active; positive

// query Give reported mutagenic call for CC(=O)O[C@]1(C(C)=O)CC[C@H]2[C@@H]3C4OC4(Cl)C4=CC(=O)[C@@H]5C[C@@H]5[C@]4(C)[C@H]3CC[C@@]21C (some centres not stated) (CCRIS mutagenicity, Ames/micronucleus/aberration tests)
// result inactive; negative

// query Give reported mutagenic call for BrCc1ccc(Br)cc1 (CCRIS mutagenicity, Ames/micronucleus/aberration tests)
// result inactive; negative

// query Check CCRIS mutagenicity, Ames/micronucleus/aberration tests data and give mutagenic call for Nc1ccc(S(=O)(=O)Nc2nccs2)cc1 .
// result inactive; negative

// query Tell me mutagenic call of NCCc1c[nH]c2ccc(O)cc12 (tested in a mixture with another compound) when tested on CCRIS mutagenicity, Ames/micronucleus/aberration tests.
// result inactive; negative

====

System: CCRIS mutagenicity, Ames/micronucleus/aberration tests
protocol_description: CCRIS mutagenicity studies
run_parameters: End Point: IN VITRO CHROMOSOMAL ABERRATIONS; Test System: CHO-LB CELLS; Metabolic Activation: RAT, LIVER, S-9, AROCLOR 1254
Calls of active or inactive are those of the source. The rule behind the calls is not given here.
Form entry, call: pick from 1.0 for active, 0.0 for inactive

// query I would be grateful if you could indicate the recorded call for CS(C)=O .
// result 0.0

// query What did the test return for Nc1c(Br)cc(Br)c2c1C(=O)c1ccccc1C2=O ?
// result 0.0

// query // param item: CCCCC(CC)COS(=O)(=O)O (centres undefined) ; yields the recorded call
// result 0.0

// query Check the results log: what was the call for CC(C)Oc1ccc(Nc2ccccc2)cc1 ?
// result 0.0

// query Call for entry CCCCCCCCCCCC(=O)N(CCO)CCO :
// result 0.0

// query Please state the recorded outcome for this molecule: CN(C)C(=O)Nc1cccc(C(F)(F)F)c1
// result 0.0

// query Fill in: this test's call for C=C(Cl)CCl is ___
// result 1.0

// query What did the test return for N#C/C=C/C#N ?
// result 0.0

// query What outcome does the record of this test show for C=CC(=O)OCC ?
// result 1.0
